Test system: Triticum aestivum
Assay: Stimulation of germination of Triticum aestivum cv. Cortex (wheat) at 0.1 mM or 1 mM after 5 days relative to untreated control
Type: functional
Active and inactive are the calls of the source. No cut-off for these calls is given here.
quantity: Activity

In [3]: df
Out[3]:
                                    compound  quantity  observedresult
 0  C=C1C(=O)O[C@H]2[C@H]1C[C@@H](O)C(=C)[C@@H]1C[C@@H](O)C(=C)[C@@]12O  Activity        inactive
 1  C=C1CC[C@H]2[C@H](C)C(=O)O[C@@H]2[C@@]2(O)C(=C)[C@H](O)C[C@@H]12  Activity        inactive
 2  C=C1CC[C@H]2[C@H](CO)C(=O)O[C@@H]2[C@@]2(O)C(=C)[C@H](O)C[C@@H]12  Activity            <20%
 3  C=C1[C@@H]2[C@H]3OC(=O)[C@@H](CO)[C@@H]3CCC(=C)[C@@H]2C[C@H]1O  Activity        inactive
 4  CC1=CC(=O)C2=C(C)C[C@H](O)[C@H]3[C@H](OC(=O)[C@@H]3C)[C@@H]12 [8ALPHA-HYDROXYACHILLIN]  Activity        inactive
 5  C=C1[C@@H]2[C@H]3OC(=O)C(=C)[C@@H]3CCC(=C)[C@@H]2C[C@@H]1O  Activity            <20%
 6  C=C1C(=O)O[C@H]2[C@H]1CCC(=C)[C@]13C[C@@H](O)C(=C)[C@]21OC(C)(C)O3  Activity        inactive
 7  C=C1CC[C@H]2C(=C)CC[C@@H](C(=C)CO)[C@H](O)[C@@H]12  Activity        inactive
 8  CC(=O)O[C@H]1CC(C)=C2C(=O)C=C(C)[C@@H]2[C@H]2OC(=O)[C@H](C)[C@H]21  Activity             20%
 9  C=C1CC[C@H]2[C@H](C)C(=O)O[C@@H]2[C@@]2(O)C(=C)[C@H](O)C[C@@]12O  Activity        inactive
10  C=C1CC[C@H]2C(=C)CC[C@H]3C(=C)C(=O)O[C@@H]3[C@@H]12 [DEHYDROCOSTUSLACTONE]  Activity            >40%

----------
Test system: Triticum aestivum
Assay: Stimulation of germination of Triticum aestivum cv. Cortex (wheat) at 0.1 mM or 1 mM after 5 days relative to untreated control
Type: functional
Activity calls are given as the source filed them. The rule behind the calls is not given here.
quantity: Activity

>>> print(df.to_string())
                                   compound  targetortestsystem  observedresult
0  C=C1C(=O)C[C@H]2C(=C)CC[C@H]3C(=C)C(=O)O[C@@H]3[C@@H]12 [DEHYDROZALUZANIN C]   Triticum aestivum            >40%
1  C=C1C(=O)O[C@H]2[C@H]1CCC(=C)[C@]1(O)C[C@@H](O)C(=C)[C@]21O   Triticum aestivum        inactive
2  C=C1C(=O)O[C@H]2[C@H]1CCC(=C)[C@@H]1C[C@@H](O)C(=C)[C@@]12O [5ALPHA-HYDROXYISOZALUZANIN C]   Triticum aestivum        inactive
3  C=C1CC[C@H]2C(=C)CC[C@@H]3[C@H](OC(=O)[C@]3(O)CO)[C@@H]12   Triticum aestivum            <20%
4  C=C1CC[C@H]2C(=C)CC[C@@H]3[C@H](OC(=O)[C@H]3CO)[C@@H]12   Triticum aestivum           <=20%
5  COc1nc(C)nc(NC(=O)NS(=O)(=O)c2ccccc2OCCCl)n1 [LOGRAN]   Triticum aestivum             20%
6  C=C1[C@@H]2[C@H]3OC(=O)C(=C)[C@@H]3CCC(=C)[C@@H]2C[C@H]1O [ISOZALUZANIN C]   Triticum aestivum             20%
7  C=C1C(=O)O[C@H]2[C@H]1CCC(=C)[C@@H]1CCC(=C)[C@@]12O   Triticum aestivum        inactive
